- protocolText: Drug uptake in brain of nontransgenic mouse at 10 mg/kg, ip after 4 hrs
measure: concentration at 4 h (nM)
Entry rule: numbers only, all in nM.

Data request, read-out concentration at 4 h, for `COc1ccc(CSc2nnc(-c3ccncc3)o2)cc1`
47

---

Measured IC50, listed per entry.
- Tested on: Fibroblast
- protocolText: Inhibition of human SOD1 expressed in mouse fibroblasts after 48 hrs by ELISA relative to control
- Format: functional, cell-based
- conditionParameters: Mus musculus, Fibroblast, 48 h; read-out: IC50
Only the number, expressed in nM, is required.

Example results:
1) Ic1cccc(CSc2nnc(-c3ccncc3)o2)c1 | 625
2) O=C1Cc2c([nH]c3ccc(Br)cc23)-c2ccccc2N1 [KENPAULLONE] | 10000
3) O=C(CCl)c1cc(Br)c(Br)s1 | 650

Please give the measured IC50 for this molecule: `O=C1NC(=O)C(c2cn(CCCO)c3ncccc23)=C1c1cnccn1`
10000

Which IC50 value is on record for Cn1cc(C2=C(c3ccc(Cl)cc3Cl)C(=O)NC2=O)c2ccccc21 [SB-216763] ?
3000
